# Test system: KM12
# test-method-notes: NCI tumour cell line growth inhibition, 48 h
Active and inactive are the calls of the source. No stated cut-off is given here; in the data, active = GI50 up to about 1.1 µM and inactive = higher.
Possible outcomes: active, inactive

# molecule, category
rows = [
    ("Nc1ncnc2c1ncn2C1(CO)OC(CO)C(O)C1O (stereo unspecified)", "inactive"),
    ("CC(=O)OC(=O)O/C=C\\CCl", "inactive"),
    ("CC(=O)Oc1ccc2ccc(=O)oc2c1OC(C)=O", "inactive"),
    ("CCCCCCCC/C=C\\CCCCCCCCNc1ccn(C2OC(COP(=O)(O)OC3CC(n4cc(F)c(=O)[nH]c4=O)OC3CO)C(O)C2O)c(=O)n1 (stereo unspecified)", "inactive"),
    ("Cc1ccc(-c2c(C#N)c(-c3ccc(Cl)cc3)c(C#N)c(=O)n2NS(=O)(=O)c2ccc(C)cc2)cc1", "inactive"),
    ("c1ccc(CC(Nc2cccnc2)c2ccccc2)cc1 (stereo unspecified)", "inactive"),
    ("CC(=O)O[C@H]1[C@@H](OC2CCCC2(c2ccccc2)c2ccccc2)O[N+]([O-])=C[C@@]12COCc1cc3c(cc12)OCO3 (stereo partly specified)", "inactive"),
    ("COc1ccc(-c2nnc3c4ccccc4sn23)cc1", "inactive"),
    ("c1ccc(CN2COc3c(ccc4c5c(ccc34)CN(Cc3ccccc3)CO5)C2)cc1", "inactive"),
    ("C=CCN1CCN([C@H](c2ccc(C(=O)N(CC)CC)cc2)c2cccc(OC)c2)CC1", "inactive"),
    ("C/C=C\\C(CC(=O)NCCC1CN(C(=O)c2ccccc2)c2ccccc21)CC(=O)OC (stereo unspecified)", "inactive"),
    ("N#CC(C#N)=C1NN=C(Cl)c2ccccc21", "inactive"),
    ("O=c1n(CCCCn2c(=O)n(CC3CS3)c3ccccc32)c2ccccc2n1CC1CS1 (stereo unspecified)", "inactive"),
    ("O=c1c2c3c(sc2nc2n1N=CN(c1ccc(Cl)cc1)C2)CCCC3", "inactive"),
    ("Cc1ccc(NC(=O)c2cccc([N+](=O)[O-])c2O)c([N+](=O)[O-])c1", "inactive"),
    ("COC(=O)[C@H](Cc1c[nH]c2ccccc12)NC(=O)c1ccccc1I", "inactive"),
    ("CC(=O)Nc1ccc(/C=C/C(=O)N2CC(CCl)c3c2cc(N)c2ccccc32)cc1 (stereo unspecified)", "active"),
    ("O=C1/C(=C/c2ccc(Cl)cc2)NC(=S)N1CN1CCCCC1", "inactive"),
    ("Oc1cc(Br)cc2cc(Br)cnc12", "inactive"),
    ("CSc1nc2c(c(=O)[nH]1)N=C(c1ccc([N+](=O)[O-])cc1)CC(c1ccccc1)N2 (stereo unspecified)", "inactive"),
    ("COc1ccc(O)c2c(=O)ccccc12", "inactive"),
]

// data source = ChEMBL document CHEMBL1201862
